testTarget: T1, AnkB C-terminal ankyrin domain (residues 54-168) (L. pneumophila strain Philadelphia, UniProt Q5ZTL7 54-168)
T1 sequence: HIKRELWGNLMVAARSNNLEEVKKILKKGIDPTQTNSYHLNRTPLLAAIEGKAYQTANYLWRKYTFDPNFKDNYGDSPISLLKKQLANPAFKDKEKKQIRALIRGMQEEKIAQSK
assayInfo: NMR titration
pKd: −log10 of the molar value.
readoutType: pKd

QUERY: State the recorded pKd for this entry: QEEKI [QEEKI pentapeptide derived from the AnkB C-terminus]
RESULT: < 2.10
